ASSAY_TEXT: in vivo
TEST_CONDITIONS: both, ICR, mouse, po

- COMPOUND: "O=C(NN1C(=O)C2C3C=CC(C4CC34)C2C1=O)c1ccc(C(F)(F)F)cc1 (stereo not shown)"
  ENDPOINT_UNIT: "h"
  Tmax: 3

---

ASSAY_TEXT: in vivo
TEST_CONDITIONS: both, ICR, mouse, po, maximum concentration (Cmax) of ST-246 in serum

- COMPOUND: "O=C(NN1C(=O)C2C3C=CC(C4CC34)C2C1=O)c1ccc(C(F)(F)F)cc1 (stereo not shown)"
  Cmax [ng/mL]: 15500

---

ASSAY_TEXT: in vivo
TEST_CONDITIONS: both, ICR, mouse, po, Cmax

- COMPOUND: "O=C(NN1C(=O)C2C3C=CC(C4CC34)C2C1=O)c1ccc(C(F)(F)F)cc1 (stereo not shown)"
  Cmax / ng/mL: 15500

Origin of the recorded values: paper PMC9863109
